- Tested on: A549 cell line
- ASSAY PROTOCOL: MTT cytotoxicity assay, A549
- Format: cell-based, human
- CONDITION NOTES: Homo sapiens; A549, 50 μΜ, 24 h; read-out: % Cell Toxicity 50 μΜ
QUANTITY MEASURED: cytotoxicity at 50 µM (%)
Kindly provide the numeric value in % only, without the unit symbol.

// known answers, use as guide
# COMPOUND, QUANTITY MEASURED, NUMERIC READOUT
records = [
    ("O=c1[nH]c(=S)[nH]c2nc(-c3ccc(Cl)cc3)cc(-c3ccc(Cl)cc3)c12", "cytotoxicity at 50 µM", 88.1),
    ("O=C(/C=C/c1ccccc1)c1ccc(Cl)cc1", "cytotoxicity at 50 µM", 88.1),
    ("O=c1[nH]c(=S)[nH]c2nc(-c3ccc(Cl)cc3)cc(-c3ccccc3)c12", "cytotoxicity at 50 µM", 83.5),
    ("O=C(/C=C/c1cccs1)c1ccc(Cl)cc1", "cytotoxicity at 50 µM", 83.2),
    ("O=c1[nH]c(=S)[nH]c2nc(-c3ccccc3)cc(-c3ccccc3)c12", "cytotoxicity at 50 µM", 75),
    ("O=C(/C=C/c1ccccc1)c1ccccc1 [Compound 1a, (E)-1,3-diphenylprop-2-en-1-one]", "cytotoxicity at 50 µM", 81.6),
    ("O=c1[nH]c(=S)[nH]c2nc(-c3ccc(Cl)cc3)cc(-c3ccc(Cl)cc3Cl)c12", "cytotoxicity at 50 µM", 76.9),
    ("O=C(/C=C/c1ccc(Cl)cc1Cl)c1ccc(Cl)cc1", "cytotoxicity at 50 µM", 81.1),
]

Field: next compound
Lookup: Provide the documented cytotoxicity at 50 µM with A549 cell line as the system for O=c1[nH]c(=S)[nH]c2nc(-c3ccccc3)cc(-c3ccc(Cl)cc3)c12
Found: 83.9

====

- MEASURED TARGET: soybean lipoxygenase (Glycine max)
- Construct: purchased Sigma Aldrich- Merck KGaA, Darmstadt, Germany
- Sequence (P08170 whole entry): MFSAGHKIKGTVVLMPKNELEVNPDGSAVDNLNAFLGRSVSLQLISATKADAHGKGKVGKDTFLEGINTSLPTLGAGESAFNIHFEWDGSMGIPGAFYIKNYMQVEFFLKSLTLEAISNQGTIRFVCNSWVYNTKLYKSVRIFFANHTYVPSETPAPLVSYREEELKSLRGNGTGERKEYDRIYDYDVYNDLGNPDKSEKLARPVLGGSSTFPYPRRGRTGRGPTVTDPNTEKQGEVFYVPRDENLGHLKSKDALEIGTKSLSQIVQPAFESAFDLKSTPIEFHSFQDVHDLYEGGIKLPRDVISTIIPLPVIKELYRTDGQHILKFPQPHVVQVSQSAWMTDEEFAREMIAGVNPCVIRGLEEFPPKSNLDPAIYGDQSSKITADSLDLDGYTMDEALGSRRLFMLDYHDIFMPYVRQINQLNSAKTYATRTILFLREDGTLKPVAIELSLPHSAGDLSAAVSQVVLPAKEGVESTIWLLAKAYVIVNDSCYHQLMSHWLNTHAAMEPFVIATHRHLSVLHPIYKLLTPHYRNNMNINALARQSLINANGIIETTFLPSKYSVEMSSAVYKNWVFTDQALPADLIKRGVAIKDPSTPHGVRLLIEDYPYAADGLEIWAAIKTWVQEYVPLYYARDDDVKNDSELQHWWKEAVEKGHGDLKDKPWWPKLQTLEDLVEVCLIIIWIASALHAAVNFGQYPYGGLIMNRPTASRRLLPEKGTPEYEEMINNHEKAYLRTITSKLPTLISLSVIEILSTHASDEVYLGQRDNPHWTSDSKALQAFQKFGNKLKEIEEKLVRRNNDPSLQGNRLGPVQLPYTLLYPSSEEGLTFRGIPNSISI
- ASSAY PROTOCOL: Inhibition of soybean lipoxygenase
- Assay type: biochemical
- CONDITION NOTES: 100 μM; cells of the mixed column without μM; read-out: LOX % Inhibition 100 μM
Here the recorded inhibition at 100 µM is given for each entry.
Field format: number, assumed %, no unit text.

A selection of reference data follows.
# COMPOUND, QUANTITY MEASURED, NUMERIC READOUT
records = [
    ("O=c1[nH]c(=S)[nH]c2nc(-c3ccc(Cl)cc3)cc(-c3ccccc3)c12", "inhibition at 100 µM", 6),
    ("O=C(/C=C/c1ccccc1)c1ccc(Cl)cc1", "inhibition at 100 µM", 39),
]

Lookup: Quick check: inhibition at 100 µM on soybean lipoxygenase (Glycine max), item O=C(/C=C/c1cccs1)c1ccccc1 ?
Found: 6

Lookup: API: value(readout= inhibition at 100 µM, system= soybean lipoxygenase (Glycine max), query= O=C(/C=C/c1ccc(Cl)cc1)c1ccc(Cl)cc1 )
Found: 4

Lookup: For the record O=C(/C=C/c1ccccc1)c1ccccc1 [Compound 1a, (E)-1,3-diphenylprop-2-en-1-one] , what value of inhibition at 100 µM is listed for soybean lipoxygenase (Glycine max)?
Found: 26

Lookup: // map O=c1[nH]c(=S)[nH]c2nc(-c3ccc(Cl)cc3)cc(-c3ccc(Cl)cc3Cl)c12 to recorded inhibition at 100 µM (system: soybean lipoxygenase (Glycine max))
Found: 27
